# System: SW684
# method: relative viability vs DMSO control (72 h) (fraction); higher = more viable cells
# conditionNotes: 0.1235 µM
Reported relative viability values are given for each entry in this list.
The answer should be written as a number, with no unit following it.

A selection of reference data follows.
>  <structureAsSmiles>
C[C@]12O[C@H](C[C@]1(O)CO)n1c3ccccc3c3c4c(c5c6ccccc6n2c5c31)CNC4=O

>  <measuredOn>
SW684

>  <measured>
1.11

$$$$
>  <structureAsSmiles>
CC(C)(O)CNc1nc(Nc2ccnc(C(F)(F)F)c2)nc(-c2cccc(C(F)(F)F)n2)n1

>  <measuredOn>
SW684

>  <measured>
1.2

$$$$
>  <structureAsSmiles>
O=S(=O)(c1cccc2cnccc12)N1CCCNCC1

>  <measuredOn>
SW684

>  <measured>
0.986

$$$$
>  <structureAsSmiles>
O=c1sn(-c2cccc3ccccc23)c(=O)n1Cc1ccccc1

>  <measuredOn>
SW684

>  <measured>
1.17

$$$$
>  <structureAsSmiles>
CNC(=O)c1nnc(NC(=O)C2CC2)cc1Nc1cccc(-c2ncn(C)n2)c1OC

>  <measuredOn>
SW684

>  <measured>
1.18

$$$$
>  <structureAsSmiles>
Cn1ncnc1[C@H]1c2n[nH]c(=O)c3cc(F)cc(c23)N[C@@H]1c1ccc(F)cc1

>  <measuredOn>
SW684

>  <measured>
0.963

$$$$

Request the reported relative viability associated with "CNC(=O)c1ccccc1Sc1ccc2c(/C=C/c3ccccn3)n[nH]c2c1"
1.14

Request the reported relative viability associated with "COc1cc(Nc2ncc(F)c(Nc3ccc4c(n3)N(COP(=O)(O)O)C(=O)C(C)(C)O4)n2)cc(OC)c1OC"
1.09

Request the reported relative viability associated with "N#CC1(c2ccc(NC(=O)c3cccnc3NCc3ccncc3)cc2)CCCC1"
1.1

Request the reported relative viability associated with "CC(C)(C)c1nc(-c2cccc(NS(=O)(=O)c3c(F)cccc3F)c2F)c(-c2ccnc(N)n2)s1"
1.13

* * *

Reported relative viability values are given for each entry in this list.
# System: SW684
# method: relative viability vs DMSO control (72 h) (fraction); higher = more viable cells
# conditionNotes: 10 µM
The answer should be written as a number, with no unit following it.

A selection of reference data follows.
>  <structureAsSmiles>
N#CC1(c2ccc(NC(=O)c3cccnc3NCc3ccncc3)cc2)CCCC1

>  <measured>
1.02

$$$$
>  <structureAsSmiles>
Cc1cc2c(F)c(Oc3ncnn4cc(OC[C@@H](C)O)c(C)c34)ccc2[nH]1

>  <measured>
1.21

$$$$
>  <structureAsSmiles>
N#CCNC(=O)c1ccc(-c2ccnc(Nc3ccc(N4CCOCC4)cc3)n2)cc1

>  <measured>
0.646

$$$$

Kindly consider the entry below.
Request the reported relative viability associated with "CC1(COc2ccc3c(c2)ncn3-c2ccc3cccc(N4CCC(N)CC4)c3n2)COC1"
0.423

* * *

# Test system: SW872
# method: relative viability vs DMSO control (72 h) (fraction); higher = more viable cells
# conditionNotes: 0.3704 µM
Reported relative viability values are given for each entry in this list.

>  <compound>
CC(C)(O)CNc1nc(Nc2ccnc(C(F)(F)F)c2)nc(-c2cccc(C(F)(F)F)n2)n1

>  <relative viability>
1.07

$$$$

Request the reported relative viability associated with "Cc1cc2cc(Oc3ccnc(Nc4cccc(CS(=O)(=O)NCCN(C)C)c4)n3)ccc2[nH]1"
1.02

Request the reported relative viability associated with "CO[C@H]1C[C@@H]2CC[C@@H](C)[C@@](O)(O2)C(=O)C(=O)N2CCCC[C@H]2C(=O)O[C@H]([C@H](C)C[C@@H]2CC[C@@H](OCCO)[C@H](OC)C2)CC(=O)[C@H](C)/C=C(\C)[C@@H](O)[C@@H](OC)C(=O)[C@H](C)C[C@H](C)/C=C/C=C/C=C/1C"
0.561
